- tested.target: UniProt Q9NPC2
- Sequence (Q9NPC2 whole entry): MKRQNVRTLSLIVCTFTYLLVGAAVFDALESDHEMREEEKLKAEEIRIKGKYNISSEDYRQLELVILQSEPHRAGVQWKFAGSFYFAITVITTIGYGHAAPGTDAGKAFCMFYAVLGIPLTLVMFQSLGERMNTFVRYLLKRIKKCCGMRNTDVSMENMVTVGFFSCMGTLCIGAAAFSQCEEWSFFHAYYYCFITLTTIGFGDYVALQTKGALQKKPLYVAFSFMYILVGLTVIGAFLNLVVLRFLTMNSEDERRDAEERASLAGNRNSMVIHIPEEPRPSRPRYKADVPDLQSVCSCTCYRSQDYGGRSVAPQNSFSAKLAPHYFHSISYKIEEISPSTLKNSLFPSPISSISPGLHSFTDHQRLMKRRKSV
- protocol.description: Inhibition of recombinant TASK-3 in stably transfected CHO cells (voltage-sensitive dye, KCl depolarization)
- Format: cell-based
- details: depolarization by 40 mM potassium chloride
pIC50: −log10 of the molar value.
Satisfied means recorded pIC50 is 7 or above; Not satisfied means it is below 7.

For orientation, consider the following solved cases.
CC(C)c1ccc(-c2nc3ncccn3c2CN2CC3CCC(C2)N3C(=O)c2ccccc2F)cc1 ... Satisfied
COc1ccc(Cl)c(C(=O)N2CC3CCC2CN3Cc2c(-c3ccc(C(C)C)cc3)nc3ncccn23)n1 (single isomer, unassigned) [Example 26] ... Satisfied
COc1cccc(C(=O)N2CC3CCC2CN3Cc2c(-c3ccc(Cl)cc3)nc3ncccn23)n1 (stereo not drawn) [Example 40] ... Not satisfied
O=C(C1CCCC1)N1C2COCC1CN(Cc1c(-c3ccc(Cl)cc3)nc3ncccn13)C2 ... Satisfied
COc1nc(C(F)(F)F)c(C(=O)N2C3CCC2CN(Cc2c(-c4ccc(Cl)cc4)nc4ncccn24)C3)s1 ... Satisfied
Cc1scnc1C(=O)N1C2CCC1CN(Cc1c(-c3ccc(Cl)cc3)nc3ncccn13)C2 ... Satisfied

IN: Please indicate if the recorded pIC50 for "O=C(c1cscn1)N1C2CCC1CN(Cc1c(-c3ccc(Cl)cc3)nc3ncccn13)C2" meets or exceeds 7.
OUT: Not satisfied

IN: Record "CCCOC(=O)N1C2CCC1CN(Cc1c(-c3ccc(Cl)cc3)nc3ncccn13)C2" ; criterion: pIC50 no lower than 7. Met?
OUT: Satisfied

IN: Entry "CCc1ccccc1NC(=O)N1C2CCC1CN(Cc1c(-c3ccc(Cl)cc3)nc3ncccn13)C2" : is its pIC50 no less than 7?
OUT: Satisfied

IN: Threshold query (pIC50 >= 7) on "COc1ccc(Cl)c(C(=O)N2C3CCC2CN(Cc2c(-c4ccc(C5CC5)cc4)nc4ncccn24)C3)n1"
OUT: Satisfied

IN: Does CC(C)c1ccc(-c2nc3ncccn3c2CN2CC3CCC2CN3C(=O)OC(C)(C)C)cc1 (racemic) have a reported pIC50 of at least 7?
OUT: Not satisfied

====

- tested.target: human TASK-1 (Homo sapiens (Human))
- Sequence (O14649 whole entry): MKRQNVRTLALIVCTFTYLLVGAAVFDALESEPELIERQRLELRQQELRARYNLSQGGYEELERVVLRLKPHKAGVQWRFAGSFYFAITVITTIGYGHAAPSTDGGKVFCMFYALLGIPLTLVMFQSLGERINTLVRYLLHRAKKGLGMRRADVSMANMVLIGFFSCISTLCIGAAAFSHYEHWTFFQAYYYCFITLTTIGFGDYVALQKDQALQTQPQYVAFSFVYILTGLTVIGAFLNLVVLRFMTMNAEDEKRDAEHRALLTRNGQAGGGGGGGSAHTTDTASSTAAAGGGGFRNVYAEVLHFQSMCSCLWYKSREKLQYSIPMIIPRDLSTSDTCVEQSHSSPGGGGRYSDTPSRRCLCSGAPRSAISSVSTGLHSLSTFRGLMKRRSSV
- protocol.description: Inhibition of recombinant TASK-1 in stably transfected CHO cells (voltage-sensitive dye, KCl depolarization)
- Type: cell-based
- details: depolarization by 40 mM potassium chloride
Overview of reported pIC50 across a group of molecules:
Scale note: pIC50 = -log10(concentration in M).

Completed entries (count: 8):
CC(C)(C)OC(=O)N1CC2CCC1CN2Cc1c(-c2ccc(Cl)cc2)nc2ncccn12 (single isomer, unassigned) [Example 4] ... 6.33
COc1ccc(C)c(C(=O)N2CC3CCC2CN3Cc2c(-c3ccc(Cl)cc3)nc3ncccn23)n1 (single isomer, unassigned) ... 5.96
COc1ccc(Cl)c(C(=O)N2CC3CCC2CN3Cc2c(-c3ccc(Cl)cc3)nc3ncccn23)n1 (single isomer, unassigned) [Example 23] ... 5.80
COc1ccc(F)c(C(=O)N2C3COCC2CN(Cc2c(-c4ccc(Cl)cc4)nc4ncccn24)C3)n1 ... 5.96
CCN(C(=O)N1C2CCC1CN(Cc1c(-c3ccc(Cl)cc3)nc3ncccn13)C2)c1ccccc1 ... 5.17
COc1ccc(F)c(C(=O)N2CC3CCC2CN3Cc2c(-c3ccc(Cl)cc3)nc3ncccn23)n1 (stereo not shown) [Example 41] ... 5.82
CC(C)c1ccc(-c2nc3ncccn3c2CN2CC3CCC(C2)N3C(=O)c2ncoc2C2CC2)cc1 ... 5.46
CCOc1ccc(N(C)C(=O)N2C3CCC2CN(Cc2c(-c4ccc(Cl)cc4)nc4ncccn24)C3)cc1 ... 4.82

IN: # get_value(readout= pIC50, system= human TASK-1 (Homo sapiens (Human))) for "COc1cccc(C(=O)N2C3COCC2CN(Cc2c(-c4ccc(C(C)C)cc4)nc4ncccn24)C3)n1"
OUT: 5.43

IN: GET /values?readout=pIC50&system=human TASK-1 (Homo sapiens (Human))&item= "O=C(c1ccccc1F)N1C2CCC1CN(Cc1c(-c3ccc(C4CC4)cc3)nc3ncccn13)C2"
OUT: 5.80

IN: Which pIC50 is reported with human TASK-1 (Homo sapiens (Human)) for this entry: "COc1cccc(C(=O)N2C3CCC2CN(Cc2c(-c4ccc(C(C)C)cc4)nc4ncccn24)C3)n1" ?
OUT: 5.77

IN: Request: pIC50, test system human TASK-1 (Homo sapiens (Human)), entry "O=C(C1CCCC1)N1C2COCC1CN(Cc1c(-c3ccc(Cl)cc3)nc3ncccn13)C2"
OUT: 5.92

IN: Entry COc1ccc(Cl)c(C(=O)N2CC3CCC2CN3Cc2c(-c3ccc(C(C)C)cc3)nc3ncccn23)n1 (single isomer, unassigned) [Example 26] , system human TASK-1 (Homo sapiens (Human)): what pIC50 was measured?
OUT: 5.85

IN: Give the reported pIC50 for "CNc1cccc(C(=O)N2C3CCC2CN(Cc2c(-c4ccc(C(C)C)cc4)nc4ncccn24)C3)n1" (system: human TASK-1 (Homo sapiens (Human))).
OUT: 5.16
